Data origin, for the record: ChEMBL document CHEMBL1687698

Molecular target: C-C chemokine receptor type 5 (Homo sapiens)
Test: Displacement of [125I]MIP-1beta from CCR5 in IL-10-stimulated human monocytes
Type: cell-based
pIC50: −log10 of the molar value.
quantity_name: pIC50

a: Cc1ncnc(C)c1C(=O)N1CCC(C)(N2CCN(C3CCc4cc(Br)ccc43)[C@@H](C)C2)CC1 (single isomer, unassigned; diastereomer 1)
b: CCO[C@@H]1Cc2cc(C(F)(F)F)ccc2[C@H]1N1CCN(C2(C)CCN(C(=O)c3c(C)ncnc3C)CC2)C[C@@H]1C [INCB-9471]
Which value of pIC50 is numerically greater: that of a or that of b ? Identify your pick by its label.
a
(a: 8.41, b: 8.19)

====

Experiment: Oral bioavailability in dog at 20 mg/kg
Assay type: ADME, organism-based, Canis lupus familiaris
Conditions: in vivo
quantity_name: bioavailability (%)
Reply with just the number (in %).

Specify reported bioavailability for the compound shown: CCO[C@@H]1Cc2cc(C(F)(F)F)ccc2[C@H]1N1CCN(C2(C)CCN(C(=O)c3c(C)ncnc3C)CC2)C[C@@H]1C
95

====

Target: C-C chemokine receptor type 5 (Homo sapiens, UniProt P51681)
Sequence (P51681 whole entry): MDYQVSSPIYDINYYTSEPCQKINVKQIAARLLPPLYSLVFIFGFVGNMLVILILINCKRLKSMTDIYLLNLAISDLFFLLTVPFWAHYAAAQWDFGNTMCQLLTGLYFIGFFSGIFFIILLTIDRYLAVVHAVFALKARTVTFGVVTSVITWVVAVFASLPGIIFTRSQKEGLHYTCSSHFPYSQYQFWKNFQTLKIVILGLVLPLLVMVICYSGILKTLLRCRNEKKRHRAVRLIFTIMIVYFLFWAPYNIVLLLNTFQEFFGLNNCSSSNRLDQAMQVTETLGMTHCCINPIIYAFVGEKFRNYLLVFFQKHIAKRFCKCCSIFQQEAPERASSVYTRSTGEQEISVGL
Assay: Antagonist activity at CCR5 assessed as inhibition of intracellular calcium mobilization
Type: functional, cell-based
quantity_name: IC50 (µM)
Write it as a number; the unit µM goes unstated.

Give IC50 for CCO[C@@H]1Cc2cc(C(F)(F)F)ccc2[C@H]1N1CCN(C2(C)CCN(C(=O)c3c(C)ncnc3C)CC2)C[C@@H]1C
0.016

====

Target: C-C chemokine receptor type 5 (Homo sapiens)
Assay: Antagonist activity at CCR5 assessed as inhibition of receptor internalization
Format: functional
quantity_name: IC50 (nM)
A number alone suffices; assume nM.

State its IC50: CCO[C@@H]1Cc2cc(C(F)(F)F)ccc2[C@H]1N1CCN(C2(C)CCN(C(=O)c3c(C)ncnc3C)CC2)C[C@@H]1C [INCB-9471]
1.5

====

Assay: Tmax in rat at 20 mg/kg, po
Format: ADME, organism-based
Design: dose 20 mg/kg, route oral
Settings: in vivo
quantity_name: Tmax (h)
Express your answer in h, writing the number without its unit.

For CCO[C@@H]1Cc2cc(C(F)(F)F)ccc2[C@H]1N1CCN(C2(C)CCN(C(=O)c3c(C)ncnc3C)CC2)C[C@@H]1C [INCB-9471] , write its Tmax.
3
